# GI50 values compiled below
Tested on: OVCAR-4
Assay: NCI tumour cell line growth inhibition, 48 h
Activity calls are given as the source filed them. Rule as the data show it: active = GI50 up to about 1.1 µM and inactive = higher.
assay-metric: GI50

{"compound": "NS(=O)(=O)c1nnc(NS(=O)(=O)c2ccccc2[N+](=O)[O-])s1", "tgt": "OVCAR-4", "assay-metric": "GI50", "result": "> 100 µM (inactive)"}
{"compound": "Cc1cc(OC(=O)NCn2cc(-c3ccccc3)nn2)ccc1Cl", "tgt": "OVCAR-4", "assay-metric": "GI50", "result": "78.7 µM (inactive)"}
{"compound": "CCOC(=O)C(C)c1cc(C2(C)OCCO2)c(C)o1 (stereo not given)", "tgt": "OVCAR-4", "assay-metric": "GI50", "result": "> 100 µM (inactive)"}
{"compound": "COC/C=C\\[C@@]1(O)CCCC[C@@H]1CC(OC)OC", "tgt": "OVCAR-4", "assay-metric": "GI50", "result": "31.8 µM (inactive)"}
{"compound": "COc1c(OC(C)=O)c(OC(C)=O)cc2c1-c1ccc(SC)c(=O)cc1C(NC(C)=O)CC2 (stereo not given)", "tgt": "OVCAR-4", "assay-metric": "GI50", "result": "26 µM (inactive)"}
{"compound": "CC1OC(OC2C(OC(=O)[C@]34CCC(C)(C)C[C@H]3C3=CC[C@@H]5[C@@]6(C)CC[C@H](OC7OC(C(=O)O)C(O)C(O)C7O)C(C)(C)[C@@H]6CC[C@@]5(C)[C@]3(C)C[C@H]4O)OCC(O)C2O)C(O)C(O)C1OC1OCC(OC2OCC(O)C(O)C2O)C(O)C1O (stereo not given in full)", "tgt": "OVCAR-4", "assay-metric": "GI50", "result": "5.32 µM (inactive)"}
{"compound": "OCC(O)C(O)c1nn(-c2ccccc2)c2nc3cc(Cl)c(Cl)cc3nc12 (stereo not given)", "tgt": "OVCAR-4", "assay-metric": "GI50", "result": "24.7 µM (inactive)"}
{"compound": "N#CC(C(=O)CCCC(=O)Nc1ccccc1[N+](=O)[O-])c1c(Cl)cccc1Cl (stereo not given)", "tgt": "OVCAR-4", "assay-metric": "GI50", "result": "> 100 µM (inactive)"}
{"compound": "CCOC(=O)c1ccc(C(=O)/C(C(=O)OC(C)(C)C)=C2\\CCCN2C)n1C", "tgt": "OVCAR-4", "assay-metric": "GI50", "result": "46.6 µM (inactive)"}
{"compound": "CC1=Nc2c(O)nc(S)nc2NC(c2ccc(Cl)c(Cl)c2)C1 (stereo not given)", "tgt": "OVCAR-4", "assay-metric": "GI50", "result": "25.5 µM (inactive)"}

###

System: IGROV-1
Test: NCI tumour cell line growth inhibition, 48 h
Active and inactive are the calls of the source. Cut-off read from the data, not from the text of the source: active = GI50 up to about 1.1 µM and inactive = higher.

{"compound": "CC(C)C(=O)N1Cc2cc(Cl)cc(Cl)c2OC(=O)c2ccccc21", "GI50": "29.5 µM (inactive)"}
{"compound": "O=C1[C@H](O)[C@@H]2CCC[C@@]23CCCN13", "GI50": "> 100 µM (inactive)"}
{"compound": "C=CCOn1c(C=C)nc2c(C)cccc21", "GI50": "7.35 µM (inactive)"}
{"compound": "Nc1c(Br)c(=O)[nH]c(=O)n1COCCO", "GI50": "> 100 µM (inactive)"}
{"compound": "COC(=O)C1=C(C(=O)OC)C(OO)(c2ccccc2)OC1=O (stereo not given)", "GI50": "35 µM (inactive)"}
{"compound": "CN(C)C=C1C(Cl)=C(C=O)CC(C=O)=C1Cl", "GI50": "16.1 µM (inactive)"}
{"compound": "Cc1ccc2c(c1)C(=S)N1CSCC1c1nncn1-2 (stereo not given)", "GI50": "> 100 µM (inactive)"}
{"compound": "Cc1c(O)c(C)c2c(C)cn(C(=O)C(C)(C)C)c2c1C", "GI50": "21.6 µM (inactive)"}
{"compound": "Clc1cccc(N2CCN(CCCN3CCc4c([nH]c5ccccc45)C3c3cccnc3)CC2)c1 (stereo not given)", "GI50": "29.6 µM (inactive)"}
{"compound": "CCOC(=O)c1ccc(C(=O)/C(C(=O)OC(C)(C)C)=C2\\CCCN2C)n1C", "GI50": "> 100 µM (inactive)"}
{"compound": "CC(C(=O)O)C(C)(O)C(=O)O (stereo not given)", "GI50": "> 100 µM (inactive)"}
{"compound": "O=C1C=CC(=O)C12CCc1ccccc12", "GI50": "> 100 µM (inactive)"}
{"compound": "S=c1ssc2c3ssc(=S)c3n(Cc3ccccc3)c12", "GI50": "> 100 µM (inactive)"}
{"compound": "CC(=O)c1ccc2c(c1)CC1(C2)Cc2ccccc2C1=O (stereo not given)", "GI50": "79.1 µM (inactive)"}
{"compound": "O=C1c2c(Br)sc(Br)c2[C@@H](O)[C@H]1O", "GI50": "18.2 µM (inactive)"}
